Test system: MYB
Assay: Splicing RT-qPCR assay, MYB mRNA canonical junction (CJ) and alternative junction (AJ)
Assay type: cell-based, human
Settings: Homo sapiens, 24 h, decrease in CJ mRNA; A673 or K562 cells, 24 hours treatment, RT-qPCR; read-out: MYB CJ IC50
Method: Compounds described herein were used to modulate RNA transcript abundance in cells. The expression of a target mRNA was measured by detecting the formation of an exon-exon junction in the canonical transcript (CJ). A compound mediated exon-inclusion event was detected by observing an increase in formation of a new junction with an alternative exon (AJ). Real-time qPCR assays were used to detect these splicing switches and interrogate the potency of various compounds towards different target genes. […]
Readout Label: IC50

Compound	IC50
Fc1cc(-c2ccc(OC3CC4CC(F)(F)C(C3)N4)nn2)c2[nH]ncc2c1-c1cn[nH]c1 (stereo not shown)	0.1 to 1 µM
c1nc2c(-c3cn[nH]c3)ccc(-c3cnc(N[C@@H]4C[C@H]5CC[C@@H](C4)N5)nn3)c2s1	0.1 to 1 µM
c1nc2c(-c3cn[nH]c3)ccc(-c3ccc(N[C@@H]4C[C@H]5COC[C@@H](C4)N5)nn3)c2s1	0.1 to 1 µM
c1nc2c(-c3cn[nH]c3)ccc(-c3cnc(N4CCNC(C5CC5)C4)nn3)c2s1 (stereo not shown)	1 to 10 µM
c1n[nH]cc1-c1ccc(-c2ccc(S[C@@H]3C[C@H]4CC[C@@H](C3)N4)nn2)c2[nH]ncc12	> 10 µM
CN(c1ccc(-c2ccc(-c3ccc(=O)n(C)c3)c3ncsc23)nn1)C1CC(C)(C)NC(C)(C)C1	1 to 10 µM

Next, consider the following compound.
### Prompt Need IC50 of `[2H]C([2H])([2H])N(c1ccc(-c2ccc(-c3cn[nH]c3)c3cn[nH]c23)nn1)C1CCNCC1` , thanks.
### Response > 10 µM
